# Target system: Ubiquitin carboxyl-terminal hydrolase 7 (Homo sapiens)
# Experiment description: blocks human USP7 ubiquitin-rhodamine cleavage (AID 1645854)
# Test context: purified USP7, Ub-rhodamine cleavage fluorescence; at 20 µM; hits give high values
Out of some 47,000 compounds screened, about 140 (0.3%) were called active. What follows is part of a selection rich in actives, with near analogues and random picks from the rest.
Property label: inhibition (%)
Numeric only. Scale: %

Quote inhibition reported for CN1C(=O)C2CCCCN2c2ccc(C(=O)NC3CCCC3)cc21 (configuration not stated) please.
-1.37

Hello, please tell me recorded inhibition for this one: O=C(CC1(O)C(=O)N(CCc2ccccc2)c2ccc(Cl)cc21)c1ccc2c(c1)OCCO2 (configuration not stated)
5.91

The origin of these recorded values is PubChem BioAssay AID1645854.
